Lab note: IC50 readings collected with EN PA (Influenza A virus, UniProt P15659) for the following compounds.

compound	IC50
CNC(=O)c1nn(CC2(n3cc(C)c4cccnc43)CCCC2)cc(OC(=O)OC(C)C)c1=O	100 to 1000 nM

Dear colleague, could you send me IC50 for each of the items below? Thanks.
1. CNC(=O)c1nn(CC2(c3cccc(C(F)(F)F)c3)CC2)cc(O)c1=O
2. O=C(O)c1nn(-c2cccc(Oc3ccccc3)c2)cc(O)c1=O

["100 to 1000 nM", "100 to 1000 nM"]

Take each entry in turn and give its IC50.
1. O=C(O)c1nn(-c2cccc(OC(F)(F)F)c2)cc(O)c1=O
2. O=C(c1nn(CC2(n3cc(Cl)c4cccnc43)CCCC2)cc(O)c1=O)N1CCC1

1: ≥ 1000 nM; 2: < 100 nM

Batch lookup, IC50 per entry.
1. CCn1cc(C2(Cn3cc(O)c(=O)c(C(=O)NC)n3)CCCC2)c2ccccc21
2. CNC(=O)c1nn(CCN2c3ccccc3COc3ccccc32)cc(O)c1=O

1: 100 to 1000 nM; 2: 100 to 1000 nM

====

pIC50: −log10 of the molar value.
The following are reported pIC50 results, target or system EN PA (Influenza A virus).

In the examples that follow, each entry is paired with its recorded pIC50.
molecule	result
CNC(=O)c1nn(-c2ccccc2-c2ccccc2C(C)C)cc(O)c1=O	6.00 to 7.00
CNC(=O)c1nn(CC2(n3cc(C)c4cccnc43)CCC2)cc(O)c1=O	> 7.00
CCC(NC(=O)c1nn(CC2(c3cccc(C(F)(F)F)c3)CCCC2)cc(O)c1=O)C(F)(F)F (centres unmarked)	6.00 to 7.00
CNC(=O)c1nn(-c2ccccc2N2CCCc3ccccc32)cc(O)c1=O	≤ 6.00

Pending molecule:
Please look up its pIC50: CCN(CC)S(=O)(=O)c1ccc(OC)c(-n2cc(O)c(=O)c(C(=O)O)n2)c1
6.00 to 7.00
